meta.source: patent US9951088B2

Molecular target: long isoform of human D2 receptor (Homo sapiens, UniProt P14416)
Sequence (P14416 whole entry, canonical isoform): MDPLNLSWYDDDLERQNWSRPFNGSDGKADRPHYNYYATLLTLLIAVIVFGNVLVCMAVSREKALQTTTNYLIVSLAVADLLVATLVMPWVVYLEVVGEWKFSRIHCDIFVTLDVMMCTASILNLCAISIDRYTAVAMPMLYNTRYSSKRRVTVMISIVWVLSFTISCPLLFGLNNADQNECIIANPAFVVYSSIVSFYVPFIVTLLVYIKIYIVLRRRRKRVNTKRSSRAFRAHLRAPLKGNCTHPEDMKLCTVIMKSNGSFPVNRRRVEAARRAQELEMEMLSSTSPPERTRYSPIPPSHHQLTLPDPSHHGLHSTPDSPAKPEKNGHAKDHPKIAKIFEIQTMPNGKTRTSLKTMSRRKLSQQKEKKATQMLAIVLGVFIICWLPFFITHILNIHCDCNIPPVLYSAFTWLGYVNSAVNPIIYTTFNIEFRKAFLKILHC
Assay: Arrestin Antagonist Assay (DRD2L PathHunter CHO-K1 cells, vs EC80 dopamine)
pIC50: −log10 of the molar value.

>  <Smiles structure>
CN(C)c1ncnc2c1CCN(CCCCOc1ccc3c(c1)NC(=O)CC3)C2

>  <pIC50>
6.00 to 7.00

$$$$
>  <Smiles structure>
N#Cc1cccnc1N1CCN(CCCCOc2ccc3cccc(O)c3n2)CC1

>  <pIC50>
6.00 to 7.00

$$$$
>  <Smiles structure>
Cc1cccc(N2CCN(CCCCOc3ccc4cn[nH]c4c3)CC2)c1C

>  <pIC50>
7.00 to 8.00

$$$$
>  <Smiles structure>
COc1ccc(-n2cc3c(n2)CCN(CCCCOc2ccc4c(c2)NC(=O)CC4)C3)cc1

>  <pIC50>
5.00 to 6.00

$$$$
>  <Smiles structure>
O=c1ccc2ccc(OCCCCN3CCc4sccc4C3)nc2[nH]1

>  <pIC50>
7.00 to 8.00

$$$$
>  <Smiles structure>
O=C1CCc2ccc(OCCCCN3CCc4ccccc4C3)cc2N1

>  <pIC50>
7.00 to 8.00

$$$$
>  <Smiles structure>
Oc1cccc2ccc(OCCCCN3CCN(c4cccc(Cl)c4Cl)CC3)nc12

>  <pIC50>
6.00 to 7.00

$$$$
>  <Smiles structure>
Cn1cc2c(n1)CCN(CCCCOc1ccc3c(c1)NC(=O)CC3)C2

>  <pIC50>
5.00 to 6.00

$$$$
>  <Smiles structure>
O=C1CCc2ccc(OCCCCN3CCc4ccsc4C3)nc2N1

>  <pIC50>
6.00 to 7.00

$$$$

---

Biological target: long isoform of human D2 receptor (Homo sapiens, UniProt P14416)
Experiment: Arrestin Antagonist Assay (DRD2L PathHunter CHO-K1 cells, vs EC80 dopamine)
Conditions: CHO-K1, read-out: β-arrestin (antagonist mode) Imax
Here, each record is paired with measured Emax data.

>  <Compound>
Clc1cccc2c1CCN(CCCCOc1cccc(-c3cc[nH]n3)n1)C2 [Compound 45]

>  <Emax>
< 10%

$$$$
>  <Compound>
O=C1CCc2ccc(OCCCCN3CCc4cccc(C(F)(F)F)c4C3)nc2N1 [Compound 79]

>  <Emax>
> 75%

$$$$
>  <Compound>
O=C1CCc2ccc(OCCCCN3CCc4nn(-c5ccccn5)cc4C3)cc2N1 [Compound 38]

>  <Emax>
25 to 50%

$$$$
>  <Compound>
Clc1cccc(N2CCN(CCCCOc3ccc4cn[nH]c4c3)CC2)c1 [Compound 98]

>  <Emax>
25 to 50%

$$$$
>  <Compound>
N#Cc1cccc2c1CCN(CCCCOc1ccc3ccc(=O)[nH]c3n1)C2 [Compound 62]

>  <Emax>
< 10%

$$$$
>  <Compound>
N#Cc1ccc2c(c1)CCN(CCCCOc1ccc3c(n1)NC(=O)CC3)C2 [Compound 73]

>  <Emax>
> 75%

$$$$
>  <Compound>
O=C1CCc2ccc(OCCCCN3CCc4ccccc4C3)nc2N1 [Compound 68]

>  <Emax>
> 75%

$$$$
>  <Compound>
O=C1CCc2ccc(OCCCCN3CCc4ncsc4C3)cc2N1 [Compound 26]

>  <Emax>
> 75%

$$$$
>  <Compound>
CCCOc1cccnc1N1CCN(CCCCOc2ccc3cccc(O)c3n2)CC1 [Compound 11]

>  <Emax>
> 75%

$$$$
>  <Compound>
O=c1ccc2ccc(OCCCCN3CCc4c(Cl)cccc4C3)nc2[nH]1 [Compound 60]

>  <Emax>
< 10%

$$$$
>  <Compound>
c1cc(OCCCCN2CCc3ccccc3C2)nc(-c2cc[nH]n2)c1 [Compound 44]

>  <Emax>
> 75%

$$$$
>  <Compound>
O=C1CCc2ccc(OCCCCN3CCc4nn(-c5ccccc5F)cc4C3)cc2N1 [Compound 35]

>  <Emax>
> 75%

$$$$
>  <Compound>
O=C1CCc2ccc(OCCCCN3CCc4nn(-c5cccc(F)c5)cc4C3)cc2N1 [Compound 36]

>  <Emax>
< 10%

$$$$
>  <Compound>
O=C1NCCc2ccc(OCCCCN3CCc4cc(Cl)ccc4C3)nc2N1 [Compound 85]

>  <Emax>
> 75%

$$$$
>  <Compound>
Cc1ccc2c(c1)CN(CCCCOc1ccc3c(n1)NC(=O)CC3)CC2 [Compound 81]

>  <Emax>
> 75%

$$$$

---

Here, each record is paired with measured Emax data.
Molecular target: long isoform of human D2 receptor (Homo sapiens)
Test: cAMP HTRF Agonist Assay (DRD2L PathHunter CHO-K1 cells, forskolin-stimulated)
Conditions: CHO-K1, read-out: cAMP (agonist mode) Emax

>  <Smiles structure>
O=C1CCc2ccc(OCCCCN3CCc4nn(-c5ccccc5)cc4C3)nc2N1

>  <Emax>
< 10%

$$$$
>  <Smiles structure>
CS(=O)(=O)Nc1cccc(OCCCCN2CCc3ccccc3C2)n1

>  <Emax>
< 10%

$$$$
>  <Smiles structure>
O=C1CCc2ccc(OCCCCN3CCc4ccsc4C3)cc2N1

>  <Emax>
10 to 25%

$$$$
>  <Smiles structure>
Oc1cccc2ccc(OCCCCN3CCc4cccc(C(F)(F)F)c4C3)nc12

>  <Emax>
25 to 50%

$$$$
>  <Smiles structure>
COc1ccc2c(c1)CCN(CCCCOc1ccc3c(n1)NC(=O)CC3)C2

>  <Emax>
< 10%

$$$$
>  <Smiles structure>
O=C1NCCc2ccc(OCCCCN3CCc4ccsc4C3)nc2N1

>  <Emax>
< 10%

$$$$
>  <Smiles structure>
Cc1ccccc1N1CCN(CCCCOc2ccc3cn[nH]c3c2)CC1

>  <Emax>
25 to 50%

$$$$
>  <Smiles structure>
O=C1CCc2ccc(OCCCCN3CCc4nccnc4C3)cc2N1

>  <Emax>
50 to 75%

$$$$
>  <Smiles structure>
N#Cc1cccc2c1CCN(CCCCOc1ccc3ccc(=O)[nH]c3n1)C2

>  <Emax>
> 75%

$$$$
>  <Smiles structure>
O=C1CCc2ccc(OCCCCN3CCc4c(cnn4-c4ccccc4)C3)cc2N1

>  <Emax>
> 75%

$$$$
>  <Smiles structure>
O=C1NCCc2ccc(OCCCCN3CCc4ccccc4C3)nc2N1

>  <Emax>
< 10%

$$$$
>  <Smiles structure>
Oc1cccc2ccc(OCCCCN3CCc4cc(C(F)(F)F)ccc4C3)nc12

>  <Emax>
< 10%

$$$$
>  <Smiles structure>
CCS(=O)(=O)Nc1cccc(OCCCCN2CCc3ccccc3C2)n1

>  <Emax>
< 10%

$$$$
>  <Smiles structure>
c1cc(OCCCCN2CCc3ccccc3C2)nc(-c2cc[nH]n2)c1

>  <Emax>
10 to 25%

$$$$
>  <Smiles structure>
O=C1CCc2ccc(OCCCCN3CCc4ccccc4C3)nc2N1

>  <Emax>
25 to 50%

$$$$
>  <Smiles structure>
O=c1ccc2ccc(OCCCCN3CCc4sccc4C3)nc2[nH]1

>  <Emax>
10 to 25%

$$$$
>  <Smiles structure>
COc1cccnc1N1CCN(CCCCOc2cccc(-c3cc[nH]n3)n2)CC1

>  <Emax>
50 to 75%

$$$$
>  <Smiles structure>
N#Cc1cccc2c1CCN(CCCCOc1ccc3c(n1)NC(=O)CC3)C2

>  <Emax>
50 to 75%

$$$$
>  <Smiles structure>
O=C1NCCc2ccc(OCCCCN3CCc4c(Cl)cccc4C3)nc2N1

>  <Emax>
50 to 75%

$$$$

---

Here, each record is paired with measured pIC50 data.
Target: long isoform of human D2 receptor (Homo sapiens, UniProt P14416)
Assay: cAMP HTRF Agonist Assay (DRD2L PathHunter CHO-K1 cells, forskolin-stimulated)
pIC50: −log10 of the molar value.
Assay metric: pIC50

>  <Molecule>
O=C1CCc2ccc(OCCCCN3CCc4sccc4C3)nc2N1 [Compound 69]

>  <Test result>
< 5.00

$$$$
>  <Molecule>
Cc1ccc2c(c1)CN(CCCCOc1ccc3c(n1)NC(=O)CC3)CC2 [Compound 81]

>  <Test result>
< 5.00

$$$$
>  <Molecule>
O=c1ccc2ccc(OCCCCN3CCc4ccccc4C3)nc2[nH]1 [Compound 52]

>  <Test result>
> 8.00

$$$$
>  <Molecule>
O=C1CCc2ccc(OCCCCN3CCn4cncc4C3)cc2N1 [Compound 33]

>  <Test result>
< 5.00

$$$$
>  <Molecule>
Clc1ccccc1N1CCN(CCCCOc2cccc(-c3cc[nH]n3)n2)CC1 [Compound 50]

>  <Test result>
> 8.00

$$$$
>  <Molecule>
c1ccc2c(N3CCN(CCCCOc4ccc5cn[nH]c5n4)CC3)cccc2c1 [Compound 2]

>  <Test result>
7.00 to 8.00

$$$$

---

Here, each record is paired with measured pEC50 data.
Target: long isoform of human D2 receptor (Homo sapiens)
Assay: Arrestin Agonist Assay (DRD2L PathHunter CHO-K1 cells, β-arrestin recruitment)
pEC50: −log10 of the molar value.

>  <Compound>
COc1cccnc1N1CCN(CCCCOc2ccc3cn[nH]c3c2)CC1 [Compound 99]

>  <pEC50>
> 8.00

$$$$
>  <Compound>
O=C1NCCc2ccc(OCCCCN3CCc4nn(-c5ccccn5)cc4C3)nc2N1 [Compound 90]

>  <pEC50>
7.00 to 8.00

$$$$
>  <Compound>
O=C1CCc2ccc(OCCCCN3CCc4ccccc4C3)nc2N1 [Compound 68]

>  <pEC50>
< 5.00

$$$$
>  <Compound>
O=C1NCCc2ccc(OCCCCN3CCc4c(Cl)cccc4C3)nc2N1 [Compound 88]

>  <pEC50>
7.00 to 8.00

$$$$
>  <Compound>
Oc1cccc2ccc(OCCCCN3CCc4cccc(C(F)(F)F)c4C3)nc12 [Compound 21]

>  <pEC50>
< 5.00

$$$$
>  <Compound>
Oc1cccc2ccc(OCCCCN3CCN(c4cccc5ccccc45)CC3)nc12 [Compound 6]

>  <pEC50>
6.00 to 7.00

$$$$
>  <Compound>
N#Cc1cccnc1N1CCN(CCCCOc2cccc(-c3cc[nH]n3)n2)CC1 [Compound 48]

>  <pEC50>
> 8.00

$$$$
>  <Compound>
Cc1ccc2c(c1)CN(CCCCOc1ccc3ccc(=O)[nH]c3n1)CC2 [Compound 65]

>  <pEC50>
< 5.00

$$$$
>  <Compound>
N#Cc1cccc2c1CCN(CCCCOc1ccc3ccc(=O)[nH]c3n1)C2 [Compound 62]

>  <pEC50>
> 8.00

$$$$
>  <Compound>
N#Cc1cccnc1N1CCN(CCCCOc2ccc3cccc(O)c3n2)CC1 [Compound 22]

>  <pEC50>
7.00 to 8.00

$$$$
>  <Compound>
Oc1cccc2ccc(OCCCCN3CCc4cc(Cl)ccc4C3)nc12 [Compound 14]

>  <pEC50>
< 5.00

$$$$
>  <Compound>
COc1ccc(-n2cc3c(n2)CCN(CCCCOc2ccc4c(c2)NC(=O)CC4)C3)cc1 [Compound 39]

>  <pEC50>
< 5.00

$$$$
>  <Compound>
Cn1cc2c(n1)CCN(CCCCOc1ccc3c(c1)NC(=O)CC3)C2 [Compound 24]

>  <pEC50>
6.00 to 7.00

$$$$
>  <Compound>
O=C1CCc2ccc(OCCCCN3CCc4ccsc4C3)nc2N1 [Compound 70]

>  <pEC50>
< 5.00

$$$$
>  <Compound>
CCS(=O)(=O)Nc1cccc(OCCCCN2CCc3ccccc3C2)n1 [Compound 43]

>  <pEC50>
< 5.00

$$$$
>  <Compound>
Clc1ccccc1N1CCN(CCCCOc2cccc(-c3cc[nH]n3)n2)CC1 [Compound 50]

>  <pEC50>
> 8.00

$$$$
>  <Compound>
Oc1cccc2ccc(OCCCCN3CCc4cc(F)ccc4C3)nc12 [Compound 16]

>  <pEC50>
< 5.00

$$$$
>  <Compound>
Clc1cccc2c1CCN(CCCCOc1cccc(-c3cc[nH]n3)n1)C2 [Compound 45]

>  <pEC50>
7.00 to 8.00

$$$$
>  <Compound>
COc1ccc2c(c1)CCN(CCCCOc1ccc3c(n1)NC(=O)CC3)C2 [Compound 71]

>  <pEC50>
< 5.00

$$$$
>  <Compound>
Oc1cccc2ccc(OCCCCN3CCN(c4cccc(Cl)c4Cl)CC3)nc12 [Compound 5]

>  <pEC50>
7.00 to 8.00

$$$$
>  <Compound>
CCn1cc2c(n1)CCN(CCCCOc1ccc3c(c1)NC(=O)CC3)C2 [Compound 34]

>  <pEC50>
6.00 to 7.00

$$$$
>  <Compound>
CCOc1ccccc1N1CCN(CCCCOc2ccc3cn[nH]c3c2)CC1 [Compound 93]

>  <pEC50>
> 8.00

$$$$
>  <Compound>
N#Cc1ccc2c(c1)CCN(CCCCOc1ccc3cccc(O)c3n1)C2 [Compound 15]

>  <pEC50>
< 5.00

$$$$
>  <Compound>
Clc1cccc(N2CCN(CCCCOc3ccc4cn[nH]c4c3)CC2)c1 [Compound 98]

>  <pEC50>
7.00 to 8.00

$$$$
>  <Compound>
Cc1ccc2c(c1)CN(CCCCOc1ccc3c(n1)NC(=O)CC3)CC2 [Compound 81]

>  <pEC50>
< 5.00

$$$$
>  <Compound>
Oc1cccc2ccc(OCCCCN3CCc4ccsc4C3)nc12 [Compound 19]

>  <pEC50>
< 5.00

$$$$
>  <Compound>
CS(=O)(=O)Nc1cccc(OCCCCN2CCc3ccccc3C2)n1 [Compound 42]

>  <pEC50>
< 5.00

$$$$
>  <Compound>
O=C1CCc2ccc(OCCCCN3CCc4ccsc4C3)cc2N1 [Compound 28]

>  <pEC50>
< 5.00

$$$$
>  <Compound>
O=C1CCc2ccc(OCCCCN3CCc4nn(-c5ccccc5)cc4C3)cc2N1 [Compound 30]

>  <pEC50>
> 8.00

$$$$
>  <Compound>
O=C1CCc2ccc(OCCCCN3CCc4nn(-c5ccc(F)cc5)cc4C3)cc2N1 [Compound 37]

>  <pEC50>
< 5.00

$$$$
>  <Compound>
CC(=O)Nc1cccc(OCCCCN2CCc3ccccc3C2)n1 [Compound 40]

>  <pEC50>
< 5.00

$$$$
>  <Compound>
O=c1ccc2ccc(OCCCCN3CCc4sccc4C3)nc2[nH]1 [Compound 53]

>  <pEC50>
< 5.00

$$$$
>  <Compound>
c1ccc2c(N3CCN(CCCCOc4ccc5cn[nH]c5n4)CC3)cccc2c1 [Compound 2]

>  <pEC50>
7.00 to 8.00

$$$$
>  <Compound>
Clc1cccc(N2CCN(CCCCOc3ccc4cn[nH]c4n3)CC2)c1Cl [Compound 1]

>  <pEC50>
< 5.00

$$$$
>  <Compound>
c1ccc(N2CCN(CCCCOc3ccc4cn[nH]c4n3)CC2)nc1 [Compound 4]

>  <pEC50>
7.00 to 8.00

$$$$
>  <Compound>
CCOc1cccnc1N1CCN(CCCCOc2ccc3cccc(O)c3n2)CC1 [Compound 10]

>  <pEC50>
> 8.00

$$$$
>  <Compound>
O=C1NCCc2ccc(OCCCCN3CCc4ccsc4C3)nc2N1 [Compound 87]

>  <pEC50>
< 5.00

$$$$
